Taken from the OligoGym collection.

system: TUBAL3
assay.remarks: pooled miR-30 sensor sort-seq; sequence = guide strand; note: reference of the scale not given here
recorded.conditions: shRNA
Param threshold (-0.4) applies to sensor-assay potency score (higher = more potent); output condition met when value >= threshold, condition not met when value < threshold.

These solved cases illustrate the format of a correct answer.
TTCAATTAGGTCTACATTCAAG :: condition not met
TTCTCTGAGGTACCAGTGCAGA :: condition not met
TAGACCGAGAACTCCAGCTTAG :: condition not met
TTGTCCACCATGAAGGTACAGT :: condition not met
TAAGGTACCAGGTTGGTCTGGA :: condition met

Qu. Answer whether sensor-assay potency score (higher = more potent) of `TGCATTTTCCAGCTGATCCTGT` is greater than or equal to -0.4.
Ans. condition met

Qu. Answer whether sensor-assay potency score (higher = more potent) of `TTCATTGTTGGTACTGACCCAC` is greater than or equal to -0.4.
Ans. condition met

Qu. Answer whether sensor-assay potency score (higher = more potent) of `TTAAGAGAGACGTAAACCCTGA` is greater than or equal to -0.4.
Ans. condition met

====

system: KCNS2
assay.remarks: pooled miR-30 sensor sort-seq; sequence = guide strand
recorded.conditions: shRNA
Record form. Attribute: sensor-assay potency score (higher = more potent). Fill in for each entry.
Answers are plain numbers.

TTACACCATAACCATAAGGTGC :: -1.42

I have 5 sequences here; please give me sensor-assay potency score (higher = more potent) for each one.
1. TAGTCCCTTAAATTGACCGAAG
2. TAGAAATGCAGCACGTAGGGGA
3. TGCTCCACGATTTCGAACCTAG
4. TTTATGGGCATAATAGTCCCTT
5. TTTAAACTGAGTTCACTTGGTG

Ans.
1. -1.33
2. 0.48
3. -0.681
4. -0.514
5. 0.664

I have 2 sequences here; please give me sensor-assay potency score (higher = more potent) for each one.
1. TTCTTTGTAGCTGTATTTCAAA
2. TAGGGCATTCTTGAAGAACTTG

Ans.
1. -1
2. -0.408

====

Record form. Attribute: sensor-assay potency score (higher = more potent). Fill in for each entry.
system: GHRL
assay.remarks: pooled miR-30 sensor sort-seq; sequence = guide strand
recorded.conditions: shRNA

TTGATTCCAACATCAAAGGGGG :: 0.299
TGTCCTGAAGAAACTTCCCCAG :: -1.03
TTGACCTCCATCTTCCGGGCGG :: -0.454

Here is another sequence to look at.
Qu. Return value of sensor-assay potency score (higher = more potent) for input `TTCTCTGCTGGACTCTCTGGTG` , no commentary.
Ans. -0.904

====

system: ZC3H13
assay.remarks: pooled miR-30 sensor sort-seq; sequence = guide strand
recorded.conditions: shRNA
Param threshold (-0.3) applies to sensor-assay potency score (higher = more potent); output yes when value >= threshold, no when value < threshold.

Qu. Answer whether sensor-assay potency score (higher = more potent) of `TTTTGATCTAACCACTTCTGGT` is greater than or equal to -0.3.
Ans. no

Qu. Answer whether sensor-assay potency score (higher = more potent) of `TTGAGGTCGTACAACTTGGCTC` is greater than or equal to -0.3.
Ans. yes

Qu. Answer whether sensor-assay potency score (higher = more potent) of `TTCATTTCTATAGCGCTTCTTT` is greater than or equal to -0.3.
Ans. no

Qu. Answer whether sensor-assay potency score (higher = more potent) of `TTGTTCTTCATTCTTTCTCTAA` is greater than or equal to -0.3.
Ans. no

Qu. Answer whether sensor-assay potency score (higher = more potent) of `TTGGATTCCTATCTTCTCGGAT` is greater than or equal to -0.3.
Ans. yes

Qu. Answer whether sensor-assay potency score (higher = more potent) of `TTGAACTCTCTTTCCTTTCTGG` is greater than or equal to -0.3.
Ans. yes

Qu. Answer whether sensor-assay potency score (higher = more potent) of `TTCTCGGATCTCTTCTCGCTTT` is greater than or equal to -0.3.
Ans. no

Qu. Answer whether sensor-assay potency score (higher = more potent) of `TATTCCAACATCATCCTCTTTC` is greater than or equal to -0.3.
Ans. yes

Qu. Answer whether sensor-assay potency score (higher = more potent) of `TATAATTGCTGCTATAACCTTT` is greater than or equal to -0.3.
Ans. no
